# System: P. aeruginosa PA14
# Type: cell-based, Pseudomonas aeruginosa
Bridge positions count the residues as written; N and C are the ends. Square brackets hold non-standard residues; d marks the D form. Peptide text beside a SMILES is read from it. Dab = NCC[C@H](N)C(=O)O
The following compounds are listed with their measured FIC (lowest FIC Index) combined with Lincomycin values.
PROPERTY_LABEL: FIC (lowest FIC Index) combined with Lincomycin

COMPOUND: CC(C)C[C@@H]1NC(=O)[C@@H](CC(C)C)NC(=O)[C@H](CCN)NC(=O)[C@@H](N)CCNC(=O)[C@H]([C@@H](C)O)NC(=O)[C@H](CCN)NC(=O)[C@H](CCN)NC1=O [PEHP, polymyxin E heptapeptide] (H-[Dab][Dab][dL]L[Dab][Dab]T; lactam 1-C (inferred); N-terminus assumed)
VALUE: 0.250
--
COMPOUND: CC(C)C[C@@H]1NC(=O)[C@@H](Cc2ccccc2)NC(=O)[C@H](CCN)NC(=O)[C@@H](NC(=O)[C@H](CCN)NC(=O)[C@@H](N)[C@@H](C)O)CCNC(=O)[C@H]([C@@H](C)O)NC(=O)[C@H](CCN)NC(=O)[C@H](CCN)NC1=O [PBNP, polymyxin B nonapeptide] (H-T[Dab][Dab][Dab][dF]L[Dab][Dab]T; lactam 3-C (inferred); N-terminus assumed)
VALUE: 0.156

====

# Test system: P. aeruginosa PA14
# Format: cell-based, Pseudomonas aeruginosa
Bridge positions count the residues as written; N and C are the ends. Square brackets hold non-standard residues; d marks the D form. Peptide text beside a SMILES is read from it. Dab = NCC[C@H](N)C(=O)O
The following compounds are listed with their measured FIC (lowest FIC Index) combined with Erythromycin values.
PROPERTY_LABEL: FIC (lowest FIC Index) combined with Erythromycin

COMPOUND: CC(C)C[C@@H]1NC(=O)[C@@H](Cc2ccccc2)NC(=O)[C@H](CCN)NC(=O)[C@@H](N)CCNC(=O)[C@H]([C@@H](C)O)NC(=O)[C@H](CCN)NC(=O)[C@H](CCN)NC1=O [PBHP, polymyxin B heptapeptide] (H-[Dab][Dab][dF]L[Dab][Dab]T; lactam 1-C (inferred); N-terminus assumed)
VALUE: 0.281

COMPOUND: CC(C)C[C@@H]1NC(=O)[C@@H](Cc2ccccc2)NC(=O)[C@H](CCN)NC(=O)[C@@H](NC(=O)[C@@H](N)CCN)CCNC(=O)[C@H]([C@@H](C)O)NC(=O)[C@H](CCN)NC(=O)[C@H](CCN)NC1=O [PBOP, polymyxin B octapeptide] (H-[Dab][Dab][Dab][dF]L[Dab][Dab]T; lactam 2-C (inferred); N-terminus assumed)
VALUE: 0.156

====

# Test system: P. aeruginosa PA14
# Type: cell-based, Pseudomonas aeruginosa
Bridge positions count the residues as written; N and C are the ends. Square brackets hold non-standard residues; d marks the D form. Peptide text beside a SMILES is read from it. Dab = NCC[C@H](N)C(=O)O
The following compounds are listed with their measured FIC (lowest FIC Index) combined with Erythromycin values.
PROPERTY_LABEL: FIC (lowest FIC Index) combined with Erythromycin

COMPOUND: CC(C)C[C@@H]1NC(=O)[C@@H](CC(C)C)NC(=O)[C@H](CCN)NC(=O)[C@@H](NC(=O)[C@@H](N)CCN)CCNC(=O)[C@H]([C@@H](C)O)NC(=O)[C@H](CCN)NC(=O)[C@H](CCN)NC1=O [PEOP, polymyxin E octapeptide] (H-[Dab][Dab][Dab][dL]L[Dab][Dab]T; lactam 2-C (inferred); N-terminus assumed)
VALUE: 0.313

COMPOUND: CC(C)C[C@@H]1NC(=O)[C@@H](CC(C)C)NC(=O)[C@H](CCN)NC(=O)[C@@H](NC(=O)[C@H](CCN)NC(=O)[C@@H](N)[C@@H](C)O)CCNC(=O)[C@H]([C@@H](C)O)NC(=O)[C@H](CCN)NC(=O)[C@H](CCN)NC1=O [PENP, polymyxin E nonapeptide] (H-T[Dab][Dab][Dab][dL]L[Dab][Dab]T; lactam 3-C (inferred); N-terminus assumed)
VALUE: 0.281

COMPOUND: CC(C)C[C@@H]1NC(=O)[C@@H](CC(C)C)NC(=O)[C@H](CCN)NC(=O)[C@@H](N)CCNC(=O)[C@H]([C@@H](C)O)NC(=O)[C@H](CCN)NC(=O)[C@H](CCN)NC1=O [PEHP, polymyxin E heptapeptide] (H-[Dab][Dab][dL]L[Dab][Dab]T; lactam 1-C (inferred); N-terminus assumed)
VALUE: 0.258

COMPOUND: CC(C)C[C@@H]1NC(=O)[C@@H](Cc2ccccc2)NC(=O)[C@H](CCN)NC(=O)[C@@H](NC(=O)[C@H](CCN)NC(=O)[C@@H](N)[C@@H](C)O)CCNC(=O)[C@H]([C@@H](C)O)NC(=O)[C@H](CCN)NC(=O)[C@H](CCN)NC1=O [PBNP, polymyxin B nonapeptide] (H-T[Dab][Dab][Dab][dF]L[Dab][Dab]T; lactam 3-C (inferred); N-terminus assumed)
VALUE: 0.188
